These entries and their values trace back to ChEMBL document CHEMBL5385902.

Each entry below lists one item and its recorded selectivity ratio value.
Test: Selectivity index, ratio of MIC for cytotoxicity against human HL60 cells to MIC for Trypanocidal activity against bloodstream form of Trypanosoma brucei 427-221a
Format: toxicity, cell-based
Conditions: read-out: Selectivity Index

Here is how some molecules turned out for selectivity ratio.
{"Molecule": "CCCNC(=O)N[C@H]1C=C[C@]2(O[C@H]([C@@H](CC)C(=O)[C@@H](C)[C@@H](O)[C@H](C)[C@@H]3O[C@@H]([C@@H](CC)C(=O)O)CC[C@@H]3C)[C@@H](C)C[C@H]2C)O[C@@]12CC[C@@](C)([C@H]1CC[C@](O)(CC)[C@H](C)O1)O2", "selectivity ratio": 10}
{"Molecule": "CC[C@@H](C(=O)[C@@H](C)[C@@H](O)[C@H](C)[C@@H]1O[C@@H]([C@@H](CC)C(=O)O)CC[C@@H]1C)[C@H]1O[C@]2(C=C[C@H](NC(=O)NCCCCl)[C@]3(CC[C@@](C)([C@H]4CC[C@](O)(CC)[C@H](C)O4)O3)O2)[C@H](C)C[C@@H]1C", "selectivity ratio": 10}
{"Molecule": "CC[C@@H](C(=O)[C@@H](C)[C@@H](O)[C@H](C)[C@@H]1O[C@@H]([C@@H](CC)C(=O)O)CC[C@@H]1C)[C@H]1O[C@]2(C=C[C@@H](O)[C@]3(CC[C@@](C)([C@H]4CC[C@](O)(CC)[C@H](C)O4)O3)O2)[C@H](C)C[C@@H]1C [SALINOMYCIN]", "selectivity ratio": 100}

Consider the molecule CC[n+]1c(-c2ccccc2)c2cc(N)ccc2c2ccc(N)cc21 [HOMIDIUM BROMIDE] and give its measured selectivity ratio.
1

---

Each entry below lists one item and its recorded MCC at 24 h value.
Assay: Cytotoxicity against human HL-60 cells assessed as cell killing incubated for 24 hrs by microscopic analysis
Type: toxicity, cell-based
Conditions: read-out: MIC
Answer in µM, number only, no unit symbol.

Here is how some compounds turned out for MCC at 24 h.
{"Molecule": "C=CCNC(=S)N[C@H]1C=C[C@]2(O[C@H]([C@@H](CC)C(=O)[C@@H](C)[C@@H](O)[C@H](C)[C@@H]3O[C@@H]([C@@H](CC)C(=O)O)CC[C@@H]3C)[C@@H](C)C[C@H]2C)O[C@@]12CC[C@@](C)([C@H]1CC[C@](O)(CC)[C@H](C)O1)O2", "Value Unit": "µM", "Test Result": 100}
{"Molecule": "CC[C@@H](C(=O)[C@@H](C)[C@@H](O)[C@H](C)[C@@H]1O[C@@H]([C@@H](CC)C(=O)O)CC[C@@H]1C)[C@H]1O[C@]2(C=C[C@H](NC(=S)Nc3ccccc3)[C@]3(CC[C@@](C)([C@H]4CC[C@](O)(CC)[C@H](C)O4)O3)O2)[C@H](C)C[C@@H]1C", "Value Unit": "µM", "Test Result": 10}
{"Molecule": "CC[C@@H](C(=O)[C@@H](C)[C@@H](O)[C@H](C)[C@@H]1O[C@@H]([C@@H](CC)C(=O)O)CC[C@@H]1C)[C@H]1O[C@]2(C=C[C@H](NC(=O)NCCCCl)[C@]3(CC[C@@](C)([C@H]4CC[C@](O)(CC)[C@H](C)O4)O3)O2)[C@H](C)C[C@@H]1C", "Value Unit": "µM", "Test Result": 100}

Consider the compound C=CCNC(=O)N[C@H]1C=C[C@]2(O[C@H]([C@@H](CC)C(=O)[C@@H](C)[C@@H](O)[C@H](C)[C@@H]3O[C@@H]([C@@H](CC)C(=O)O)CC[C@@H]3C)[C@@H](C)C[C@H]2C)O[C@@]12CC[C@@](C)([C@H]1CC[C@](O)(CC)[C@H](C)O1)O2 and give its measured MCC at 24 h.
100

Then what about the compound CCCCNC(=O)N[C@H]1C=C[C@]2(O[C@H]([C@@H](CC)C(=O)[C@@H](C)[C@@H](O)[C@H](C)[C@@H]3O[C@@H]([C@@H](CC)C(=O)O)CC[C@@H]3C)[C@@H](C)C[C@H]2C)O[C@@]12CC[C@@](C)([C@H]1CC[C@](O)(CC)[C@H](C)O1)O2 ?
100

Then what about the compound CC[C@@H](C(=O)[C@@H](C)[C@@H](O)[C@H](C)[C@@H]1O[C@@H]([C@@H](CC)C(=O)O)CC[C@@H]1C)[C@H]1O[C@]2(C=C[C@H](NC(=O)Nc3ccccc3)[C@]3(CC[C@@](C)([C@H]4CC[C@](O)(CC)[C@H](C)O4)O3)O2)[C@H](C)C[C@@H]1C ?
100
